- Test System: PKR R532W (Homo sapiens, UniProt P30613, R532W)
- Sequence (P30613 whole entry R532W): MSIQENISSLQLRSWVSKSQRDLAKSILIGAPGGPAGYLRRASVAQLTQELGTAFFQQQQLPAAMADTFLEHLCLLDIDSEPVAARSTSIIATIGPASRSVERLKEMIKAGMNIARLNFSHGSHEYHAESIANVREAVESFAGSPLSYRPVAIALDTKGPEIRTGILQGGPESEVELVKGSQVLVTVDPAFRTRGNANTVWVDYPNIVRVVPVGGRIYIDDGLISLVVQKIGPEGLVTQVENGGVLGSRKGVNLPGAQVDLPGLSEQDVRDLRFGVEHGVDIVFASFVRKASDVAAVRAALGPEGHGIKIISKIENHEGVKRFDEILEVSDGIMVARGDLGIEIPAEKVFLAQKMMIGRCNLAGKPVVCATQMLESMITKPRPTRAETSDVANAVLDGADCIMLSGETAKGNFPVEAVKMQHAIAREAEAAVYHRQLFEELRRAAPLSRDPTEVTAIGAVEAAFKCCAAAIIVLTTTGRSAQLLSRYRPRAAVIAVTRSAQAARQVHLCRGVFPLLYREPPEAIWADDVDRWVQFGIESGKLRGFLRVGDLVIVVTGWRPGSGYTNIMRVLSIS
- Assay Text: PKR Mutant Assay, dose response (AC50), PKR R532W
- Type: biochemical
- Test Parameters: PKR R532W mutant enzyme
Readout Label: AC50

Compound Smiles | Test System | AC50
O=C(c1ccc(NS(=O)(=O)c2cccc3scnc23)cc1)N1CCC(O)(c2nc(Cl)cs2)CC1 | PKR R532W (Homo sapiens, UniProt P30613, R532W) | 101 to 1000 nM
Cc1cc(CC2(O)CCN(C(=O)c3ccc(NS(=O)(=O)c4cccc5nccnc45)cc3)CC2)sn1 | PKR R532W (Homo sapiens, UniProt P30613, R532W) | < 100 nM
CC(F)(F)CCC1(O)CCN(C(=O)c2ccc(NS(=O)(=O)c3cccc4nccnc34)cc2F)CC1 | PKR R532W (Homo sapiens, UniProt P30613, R532W) | 101 to 1000 nM

Data request: Which AC50 is listed for Cc1ccccc1CC1(O)CCN(C(=O)c2ccc(NS(=O)(=O)c3cccc4scnc34)cc2)CC1 ?
Data returned: < 100 nM
